src = paper PMC10620989

target: Mcl-1 (Mus musculus, UniProt P97287); assay: Binary KTGS incubation (1 TA x 1 SZ) with Mcl-1, LC-MS/MS; settings: binary incubation mixtures with and without Mcl-1
Sequence (P97287 whole entry): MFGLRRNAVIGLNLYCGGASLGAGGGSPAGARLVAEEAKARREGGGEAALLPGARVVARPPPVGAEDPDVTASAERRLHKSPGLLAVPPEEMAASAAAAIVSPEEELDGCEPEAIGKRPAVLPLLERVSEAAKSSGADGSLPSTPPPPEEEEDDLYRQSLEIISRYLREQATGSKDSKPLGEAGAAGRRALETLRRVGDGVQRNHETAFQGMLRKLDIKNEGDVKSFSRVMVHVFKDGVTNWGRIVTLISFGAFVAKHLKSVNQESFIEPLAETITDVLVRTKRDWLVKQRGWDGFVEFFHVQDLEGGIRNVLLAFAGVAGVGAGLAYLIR
Readout Name: Amplification coefficient 1TA x 1SZ

Some compounds with known Amplification coefficient 1TA x 1SZ results, for comparison:
Smiles Structure	Readout Name	Measured Number
O=C(NS(=O)(=O)c1ccc(-c2ccc(C(F)(F)F)cc2)cc1)c1cccc(NCCc2ccccc2)c1	Amplification coefficient 1TA x 1SZ	4
COc1cccc(CN(CCSc2ccccc2)Cc2ccc(S(=O)(=O)NC(=O)c3ccc(C(c4c[nH]c5ccccc45)c4c[nH]c5ccccc45)cc3)cc2)c1	Amplification coefficient 1TA x 1SZ	9
COc1ccc(Cc2ccc(C(=O)NS(=O)(=O)c3ccc(CN(CCSc4ccccc4)Cc4c(F)cccc4Cl)cc3)cc2)c(OC)c1OC	Amplification coefficient 1TA x 1SZ	15
O=C(Cn1c2ccccc2c2ccccc21)NS(=O)(=O)c1ccc(CN(CCSc2ccccc2)Cc2ccc3c(c2)OCO3)cc1	Amplification coefficient 1TA x 1SZ	6
O=C(NS(=O)(=O)c1ccc(NCCSc2ccccc2)c([N+](=O)[O-])c1)c1ccc(CCc2ccccn2)cc1	Amplification coefficient 1TA x 1SZ	10

(I) O=C(NS(=O)(=O)c1ccc(-c2ccc(Oc3ccccc3)cc2)cc1)c1ccc(CCc2ccccn2)cc1
(II) CCOc1ccc(-c2ccc3c(c2)c(C(=O)NS(=O)(=O)c2cccc4c(N(C)C)cccc24)cn3C)cc1F
Data request: From the items above, decide which of I and II has the lower Amplification coefficient 1TA x 1SZ reading. Selection: enter the item's label.
Data returned: II
(II: 4, I: 9)
